Reference for the values: patent US20240209086A1

# experimental-system: canine CD3 on canine T cells (canine PBMC) (canine, UniProt P27597 22-202)
# Sequence (P27597 22-202 limits assumed, chain 1 of 3): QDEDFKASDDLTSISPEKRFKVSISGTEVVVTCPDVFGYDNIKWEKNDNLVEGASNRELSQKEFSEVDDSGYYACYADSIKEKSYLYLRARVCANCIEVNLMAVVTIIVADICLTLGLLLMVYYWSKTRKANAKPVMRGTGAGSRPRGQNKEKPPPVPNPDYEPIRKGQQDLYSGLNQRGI
# Sequence (chain, as listed by the source limits assumed, chain 2 of 3): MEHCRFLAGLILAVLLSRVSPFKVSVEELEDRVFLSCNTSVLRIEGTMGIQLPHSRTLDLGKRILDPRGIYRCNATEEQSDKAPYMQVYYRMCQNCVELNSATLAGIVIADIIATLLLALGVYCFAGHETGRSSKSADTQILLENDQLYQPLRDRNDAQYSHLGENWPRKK
# Sequence (chain, as listed by the source limits assumed, chain 3 of 3): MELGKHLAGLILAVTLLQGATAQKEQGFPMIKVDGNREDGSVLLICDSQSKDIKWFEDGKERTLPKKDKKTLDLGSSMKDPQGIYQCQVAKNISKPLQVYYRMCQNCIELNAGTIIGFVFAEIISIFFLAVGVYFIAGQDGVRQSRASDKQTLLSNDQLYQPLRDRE
# protocol-summary: cell-based or functional assay

# binder, CD25 Activation, Day 6, IS
measured = [
    ("PMX163 (monospecific anti-canine CD3, canine IgG-B effector function deficient Fc) (antibody, V domains shown) VH: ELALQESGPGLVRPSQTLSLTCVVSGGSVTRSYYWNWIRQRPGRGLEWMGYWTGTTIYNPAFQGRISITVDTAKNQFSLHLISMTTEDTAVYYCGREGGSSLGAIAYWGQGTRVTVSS VL: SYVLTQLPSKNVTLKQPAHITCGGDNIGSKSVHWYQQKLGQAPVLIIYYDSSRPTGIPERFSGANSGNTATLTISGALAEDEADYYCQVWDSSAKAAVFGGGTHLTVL", 13.3),
    ("PMX157 (monospecific anti-canine CD3, canine IgG-B effector function deficient Fc) (antibody, V domains shown) VH: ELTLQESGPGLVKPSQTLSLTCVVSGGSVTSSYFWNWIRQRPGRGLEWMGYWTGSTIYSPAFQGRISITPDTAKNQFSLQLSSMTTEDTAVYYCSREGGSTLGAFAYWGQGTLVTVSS VL: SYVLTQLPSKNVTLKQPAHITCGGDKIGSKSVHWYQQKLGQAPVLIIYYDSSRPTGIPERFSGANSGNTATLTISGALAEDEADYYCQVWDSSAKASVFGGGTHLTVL", 9.65),
    ("PMX159 (monospecific anti-canine CD3, canine IgG-B effector function deficient Fc) (antibody, V domains shown) VH: ELTLQESGPGLVKPSQTLSLTCVVSGGSVTRSYYWNWIRQRPGRGLEWMGYWTGSTIYNPTFQGRISITADTAKSQFSLQLRSMTTEDTAMYFCAREGGKSLGAFAYWGQGTLVTVSS VL: SYVLTQLPSKNVTLKQPAHITCGGDKIGSKNVHWYQQKLGQAPVMIIYYDSSRPTGIPERFSGANSGNTATLTISGALAEDEADYYCQVWDSSAKAAVFGGGTHLTVL", 11.3),
    ("PMX192 (monospecific anti-canine CD3, canine IgG-B effector function deficient Fc) (antibody, V domains shown) VH: EVQLVESGGDLVKPAGSLRLSCVASGFTFSDYSMSWVRQAPEKGLQLVAGINGDGSTTYYTDAVKGRFTISRDNAKNTVYLQMNSLRAEDTAMYYCAKGAGTGDFWGQGTLVTVSS VL: SYELTQPPSVNVTLRETAHITCGGASIGRKYVQWIQQIPGQAPVVIIYKDSNRPTGIPERFSGANSGNTATLTISGALAEDEADYYCQVGDSGAWVFGEGTQLTVL", 10.4),
    ("PMX175 (monospecific anti-canine CD3, canine IgG-B effector function deficient Fc) (antibody, V domains shown) VH: ELTLQESGPGLVKPSQTLSLTCVVSGGSVTSTYYWNWIRQRPGRGLEWMGYWTGTTNYNPAFQGRISITADTAKNQFSLQLSSMTTEDTAVYYCAREDLVTVGSGAFNYWGQGTLVTVSS VL: SYVLTQLPSKNVTLKQPAHITCGGDNIGSKSVHWYQQKLGQAPVLIIYYDSSRPTGIPERFSGANSGNTATLTISGALAEDEADYYCQVWDSSATWVFGEGTQLTVL", 14.5),
]
